biological target: E. coli EndoIV (Escherichia coli); construct: made in house; experiment: E. coli Endonuclease IV (EndoIV) profiling assay; format: biochemical
RECORDED ENDPOINT: pIC50
Answers are plain numbers, as −log10 of the molar value.

Report the value of pIC50 obtained on E. coli EndoIV (Escherichia coli) for NC(Cc1cc(O)c(O)cc1O)C(=O)O (racemic) [6-hydroxy-DL DOPA, 6-hydroxy-DL-DOPA] . 5.00

###

target: APE1 (Homo sapiens, UniProt P27695); construct: made in house; test: Radiotracer (32P, gel-based) incision assay; type: biochemical
Sequence (P27695 whole entry): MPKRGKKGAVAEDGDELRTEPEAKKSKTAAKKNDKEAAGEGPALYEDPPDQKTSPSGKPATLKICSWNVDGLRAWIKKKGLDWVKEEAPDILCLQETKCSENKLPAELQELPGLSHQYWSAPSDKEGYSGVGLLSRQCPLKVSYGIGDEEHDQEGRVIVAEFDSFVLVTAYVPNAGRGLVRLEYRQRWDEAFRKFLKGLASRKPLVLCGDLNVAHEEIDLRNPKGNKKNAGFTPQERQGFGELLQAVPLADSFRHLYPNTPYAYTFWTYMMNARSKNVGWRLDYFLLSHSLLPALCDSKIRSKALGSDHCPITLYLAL
RECORDED ENDPOINT: IC50

// fetch IC50 given entry NC(Cc1cc(O)c(O)cc1O)C(=O)O (racemic) [6-hydroxy-DL DOPA, 6-hydroxy-DL-DOPA] < 500 nM

###

target: APE1 (Homo sapiens, UniProt P27695); construct: made in house; test: Radiotracer (32P, gel-based) incision assay; assay type: biochemical; details: APE1, 32P-labeled THF substrate
RECORDED ENDPOINT: Gel: inhibition detected or not in radiotracer incision assay

>>> value_measured("O=C(O)C1=CC(=C(c2ccc(O)c(C(=O)O)c2)c2ccc(O)c(C(=O)O)c2)C=CC1=O")
"Yes"
>>> value_measured("Cc1nc(N=Nc2cc(S(=O)(=O)O)c3cc([N+](=O)[O-])cc(S(=O)(=O)O)c3c2)c(COP(=O)(O)O)c(C=O)c1O [PPNDS tetrasodium]")
"No"
>>> value_measured("C=C/C(C)=C/[C@@]1(C)SC(=O)C(C)=C1O")
"Yes"
>>> value_measured("NC(Cc1cc(O)c(O)cc1O)C(=O)O (racemic) [6-hydroxy-DL DOPA, 6-hydroxy-DL-DOPA]")
"Yes"
>>> value_measured("CO/N=C(\\C(=O)N[C@@H]1C(=O)N2C(C(=O)O)=C(CSc3nc(=O)c(=O)[nH]n3C)CS[C@H]12)c1csc(N)n1 [ceftriaxone sodium]")
"No"

Please look at the items below and tell me Gel: inhibition detected or not in radiotracer incision assay for each one, in order.
1. CN(N=O)c1ccc(O)c(O)c1
2. N#C/C(=C\c1ccc(O)c(O)c1)C(=O)c1ccc(O)c(O)c1
3. Nc1c(S(=O)(=O)O)cc(Nc2ccc(Nc3nc(Cl)nc(Nc4cccc(S(=O)(=O)O)c4)n3)c(S(=O)(=O)O)c2)c2c1C(=O)c1ccccc1C2=O
4. O=C1c2c(O)ccc(O)c2C(=O)c2c(NCCNCCO)ccc(NCCNCCO)c21

Yes
Yes
Yes
Yes

// fetch Gel: inhibition detected or not in radiotracer incision assay given entry CC(=O)OCC1=C(C(=O)O)N2C(=O)[C@@H](NC(=O)CSc3ccncc3)[C@H]2SC1 [cephapirin sodium] No

###

target: APE1 (Homo sapiens, UniProt P27695); construct: made in house; test: qHTS fluorogenic AP site incision assay (TAMRA/BHQ-2 red substrate, 1536-well); format: biochemical
RECORDED ENDPOINT: IC50 (µM)
One number for each entry, in µM.

// fetch IC50 given entry NC(Cc1cc(O)c(O)cc1O)C(=O)O (racemic) [6-hydroxy-DL DOPA, 6-hydroxy-DL-DOPA] 0.11

###

Molecular target: E. coli EndoIV (Escherichia coli, UniProt P0A6C1)
Construct: made in house
Test: E. coli Endonuclease IV (EndoIV) profiling assay
Format: biochemical
Details: 2 nM EndoIV, 50 nM substrate; read-out: Endo IV IC50 (E. coli EndoIV profiling)
Protocol: EndoIV enzyme and substrate (same as that used with APE1) optimization tests were initially performed at a 40 µL final volume in a 384-well format. Reaction concentrations of 2 nM EndoIV and 50 nM DNA substrate were selected for subsequent experiments. For running the assay in 1536-well format, the same protocol as described for APE1 above was followed.
pIC50: −log10 of the molar value.
// label = yes if pIC50 is not less than 5, otherwise no

>>> assigned_class("C=C/C(C)=C/[C@@]1(C)SC(=O)C(C)=C1O [thiolactomycin]")
"no"
>>> assigned_class("N#C/C(=C\\c1ccc(O)c(O)c1)C(=O)c1ccc(O)c(O)c1 [Tyrphostin AG 538]")
"yes"

Assess whether reported pIC50 for O=C1c2c(O)ccc(O)c2C(=O)c2c(NCCNCCO)ccc(NCCNCCO)c21 [mitoxantrone] sits at 5 or higher. yes

Assess whether reported pIC50 for CC(=O)OCC1=C(C(=O)O)N2C(=O)[C@@H](NC(=O)CSc3ccncc3)[C@H]2SC1 [cephapirin sodium] sits at 5 or higher. no

Assess whether reported pIC50 for O=c1c(O)c(-c2cc(O)c(O)c(O)c2)oc2cc(O)cc(O)c12 [myricetin] sits at 5 or higher. no

Assess whether reported pIC50 for Cc1nc(N=Nc2cc(S(=O)(=O)O)c3cc([N+](=O)[O-])cc(S(=O)(=O)O)c3c2)c(COP(=O)(O)O)c(C=O)c1O [PPNDS tetrasodium] sits at 5 or higher. no

Assess whether reported pIC50 for O=C(O)C1=CC(=C(c2ccc(O)c(C(=O)O)c2)c2ccc(O)c(C(=O)O)c2)C=CC1=O [aurintricarboxylic acid] sits at 5 or higher. no

###

target: APE1 (Homo sapiens); construct: made in house; assay: Radiotracer (32P, gel-based) incision assay; type: biochemical; conditions: range of inhibitor concentrations, data not shown; read-out: approximate IC50 in radiotracer assay
RECORDED ENDPOINT: IC50

Worked examples follow.
>>> value_measured("Cc1nc(N=Nc2cc(S(=O)(=O)O)c3cc([N+](=O)[O-])cc(S(=O)(=O)O)c3c2)c(COP(=O)(O)O)c(C=O)c1O [PPNDS tetrasodium]")
"> 50000 nM"
>>> value_measured("C=C/C(C)=C/[C@@]1(C)SC(=O)C(C)=C1O")
"500 to 2000 nM"
>>> value_measured("N#C/C(=C\\c1ccc(O)c(O)c1)C(=O)c1ccc(O)c(O)c1")
"500 to 2000 nM"

Please look at the items below and tell me IC50 for each one, in order.
1. CC(=O)OCC1=C(C(=O)O)N2C(=O)[C@@H](NC(=O)CSc3ccncc3)[C@H]2SC1 [cephapirin sodium]
2. O=c1c(O)c(-c2cc(O)c(O)c(O)c2)oc2cc(O)cc(O)c12
3. Nc1c(S(=O)(=O)O)cc(Nc2ccc(Nc3nc(Cl)nc(Nc4cccc(S(=O)(=O)O)c4)n3)c(S(=O)(=O)O)c2)c2c1C(=O)c1ccccc1C2=O

1. > 50000 nM
2. < 500 nM
3. < 500 nM

###

target: unlabeled double-stranded DNA substrate; assay: ThO dye-displacement assay (DNA binding); details: 50 nM DNA, 250 nM ThO
pIC50: −log10 of the molar value.
For each record, write down the corresponding pIC50.

>>> value_measured("CO/N=C(\\C(=O)N[C@@H]1C(=O)N2C(C(=O)O)=C(CSc3nc(=O)c(=O)[nH]n3C)CS[C@H]12)c1csc(N)n1 [ceftriaxone sodium]")
"< 4.24"
>>> value_measured("CC(=O)OCC1=C(C(=O)O)N2C(=O)[C@@H](NC(=O)CSc3ccncc3)[C@H]2SC1 [cephapirin sodium]")
"< 4.24"

Now turn to the next molecule.
// fetch pIC50 given entry `C=C/C(C)=C/[C@@]1(C)SC(=O)C(C)=C1O` < 4.24

###

target: E. coli EndoIV (Escherichia coli); construct: made in house; test: E. coli Endonuclease IV (EndoIV) profiling assay; assay type: biochemical; settings: 2 nM EndoIV, 50 nM substrate; read-out: Endo IV IC50 (E. coli EndoIV profiling)
RECORDED ENDPOINT: pIC50
Answers are plain numbers, as −log10 of the molar value.

Worked examples follow.
>>> value_measured("Nc1c(S(=O)(=O)O)cc(Nc2ccc(Nc3nc(Cl)nc(Nc4cccc(S(=O)(=O)O)c4)n3)c(S(=O)(=O)O)c2)c2c1C(=O)c1ccccc1C2=O")
5.00
>>> value_measured("CN(N=O)c1ccc(O)c(O)c1")
5.05

Report the value of pIC50 obtained on E. coli EndoIV (Escherichia coli) for CO/N=C(\C(=O)N[C@@H]1C(=O)N2C(C(=O)O)=C(CSc3nc(=O)c(=O)[nH]n3C)CS[C@H]12)c1csc(N)n1 [ceftriaxone sodium] . 4.96

###

target: APE1 (Homo sapiens); construct: made in house; test: Radiotracer (32P, gel-based) incision assay; format: biochemical; conditions: range of inhibitor concentrations, data not shown; read-out: approximate IC50 in radiotracer assay
RECORDED ENDPOINT: IC50

>>> value_measured("CO/N=C(\\C(=O)N[C@@H]1C(=O)N2C(C(=O)O)=C(CSc3nc(=O)c(=O)[nH]n3C)CS[C@H]12)c1csc(N)n1 [ceftriaxone sodium]")
"> 50000 nM"

Please look at the items below and tell me IC50 for each one, in order.
1. CN(N=O)c1ccc(O)c(O)c1 [methyl 3,4-dephostatin, methyl-3,4-dephostatin]
2. O=C1c2c(O)ccc(O)c2C(=O)c2c(NCCNCCO)ccc(NCCNCCO)c21 [mitoxantrone]

500 to 2000 nM
< 500 nM
